Numbers sourced from patent US4973472A.

Kindly supply the reported % Inhibition values for the records listed here.
# Tested on: GTase
# assay-protocol: GTase-inhibitory activity (formation of insoluble glucan from sucrose, turbidity at 550 nm)
# Format: biochemical, Streptococcus mutans ATCC 33402
# cond: Table 4; 0.5% test substance; 37° C., 16 hours; buffer pH 6.5

{"compound": "Cc1c(C)c2c(c(C)c1OP(=O)(O)OC1=C(O)C(C(O)CO)OC1=O)CCC(C)(CCCC(C)CCCC(C)CCCC(C)C)O2 (centres unmarked) [Substance 6]", "% Inhibition": "95.8%"}
{"compound": "Cc1c(C)c2c(c(C)c1OP(=O)(O)OC1=C(O)C(C(O)CO)OC1=O)CCC(C)(CCCC(C)CCCC(C)CCCC(C)C)O2 (centres unmarked) [Substance 1]", "% Inhibition": "92.7%"}
{"compound": "Cc1cc(OP(=O)(O)OC2=C(O)C(C(O)CO)OC2=O)c(C)c2c1OC(C)(CCCC(C)CCCC(C)CCCC(C)C)CC2 (centres unmarked)", "% Inhibition": "94.5%"}
{"compound": "Cc1cc(OP(=O)(O)OC2=C(O)C(C(O)CO)OC2=O)cc2c1OC(C)(CCCC(C)CCCC(C)CCCC(C)C)CC2 (centres unmarked)", "% Inhibition": "94.5%"}

Which measured % Inhibition value corresponds to CC(C)CCCC(C)CCCC(C)CCCC1(C)CCc2cc(OP(=O)(O)OC3=C(O)C(C(O)CO)OC3=O)ccc2O1 (centres unmarked) ?
94.5%
